Quick reference for NF-kB SEAP reporter activity among some molecules
# System: RAW-Dual
# assay: NF-kB SEAP reporter activity, fold change vs agonist alone; higher = enhanced NF-kB activity
# assay context: library stock concentration (final ~1000-fold dilution): 10 mM; cytotoxicity flag (confluency mask): not cytotoxic; agonist: MPLA (TLR4) […]
Whole data set: some 2,900 compounds, median “NF-kB SEAP reporter activity, fold change vs agonist alone” near 0.99, cut for the highest 2% near 2.6. This is one part of a sample in which the highest values are shown more often than they occur.
measured parameter: NF-kB SEAP reporter activity

{"molecule": "Cc1c[nH]c(C=C2C(=O)Nc3ccccc32)c1CCC(=O)O", "test value": 0.848}
{"molecule": "COc1ccccc1Oc1c(NS(=O)(=O)c2ccc(C(C)(C)C)cc2)nc(-c2ncccn2)nc1OCCO.O", "test value": 1.1}
{"molecule": "Br.COc1cc(Br)c(Nc2nc(-c3c(C)nc4ncccn34)cs2)c(Br)c1", "test value": 2.42}
{"molecule": "NC(=O)c1ccccn1", "test value": 1.08}
{"molecule": "Cc1nc(NC(=O)N2CCCC2C(N)=O)sc1-c1ccnc(C(C)(C)C(F)(F)F)c1 (stereo unspecified)", "test value": 1.13}
{"molecule": "Clc1ccc(N/N=C(\\c2ccccc2)c2ccccn2)nc1", "test value": 2.77}
{"molecule": "Cc1cn(C2CC(O)C(CO)O2)c(=O)[nH]c1=O (stereo unspecified)", "test value": 1.03}
{"molecule": "CC(C)(C)NC(=O)C1CN(Cc2cccnc2)CCN1CC(O)CC(Cc1ccccc1)C(=O)NC1c2ccccc2CC1O.O=S(=O)(O)O (stereo unspecified)", "test value": 1.21}
{"molecule": "CC(=O)C(=O)Oc1ccccc1C(=O)O", "test value": 1.68}
{"molecule": "COCCOc1cnc2ccn(C(C)c3nnc4c(F)cc(-c5cnn(C)c5)cn34)c(=O)c2c1 (stereo unspecified)", "test value": 1.01}
{"molecule": "C[C@H]1[C@@H](O)O[C@@H]2OC3(C)CC[C@H]4[C@H](C)CC[C@@H]1[C@@]24OO3", "test value": 1.97}

====

Quick reference for NF-kB SEAP reporter activity among some compounds
# Tested on: RAW-Dual
# assay: NF-kB SEAP reporter activity, fold change vs agonist alone; cytotoxicity flag (confluency mask): cytotoxic (confluency <70% of control); higher = enhanced NF-kB activity
# assay context: agonist: Pam3CSK4 (TLR2/1) 0.1 ug/mL
In all, about 2,900 compounds were measured (“NF-kB SEAP reporter activity, fold change vs agonist alone”: median about 0.99, highest 2% from about 2.6 on). The sample holds the highest values, similar compounds and a random draw of the others, so the mix is not that of the screen.
measured parameter: NF-kB SEAP reporter activity

{"compound": "CCS(=O)(=O)Nc1ccc(Oc2ccc(F)cc2F)c(-c2cn(C)c(=O)c3[nH]ccc23)c1 (library stock concentration (final ~1000-fold dilution): 10 mM)", "test value": 1.13}
{"compound": "CN1C(=O)C(C)(C)Oc2c(-c3cn(C)c(=O)c4[nH]ccc34)cc(S(C)(=O)=O)cc21 (library stock concentration (final ~1000-fold dilution): 10 mM)", "test value": 1.99}
{"compound": "COC(=O)Nc1nc2ccc(C(=O)c3cccs3)cc2[nH]1 (library stock concentration (final ~1000-fold dilution): 10 mM)", "test value": 1.76}
{"compound": "CCNC(=O)c1cc2c(-c3cc(C(C)(C)O)ccc3Oc3c(C)cc(F)cc3C)cn(C)c(=O)c2[nH]1 (library stock concentration (final ~1000-fold dilution): 10 mM)", "test value": 0.842}
{"compound": "COc1cc(N2CCC(N)CC2)ccc1Nc1ncc(Cl)c(-c2c[nH]c3ccccc23)n1 (library stock concentration (final ~1000-fold dilution): 10 mM)", "test value": 0.118}
{"compound": "O=C(Nc1cc(C(F)(F)F)ccc1C(F)(F)F)c1cc(Br)ccc1O (library stock concentration (final ~1000-fold dilution): 10 mM)", "test value": 0.839}
{"compound": "Cl.Cl.OCCN1CCN(CC/C=C2/c3ccccc3Sc3ccc(C(F)(F)F)cc32)CC1 (library stock concentration (final ~1000-fold dilution): 10 mM)", "test value": 0.63}
{"compound": "Cc1cc2c(F)c(Oc3ncnn4cc(OCC(C)OC(=O)C(C)N)c(C)c34)ccc2[nH]1 (centres undefined) (library stock concentration (final ~1000-fold dilution): 10 mM)", "test value": 1.13}
{"compound": "CS(=O)(=O)O.O=C(Nc1cccc(Cl)c1)Nc1ncc(CCNc2ncnc3ccsc23)s1 (library stock concentration (final ~1000-fold dilution): 10 mM)", "test value": 0.292}

====

# System: RAW-Dual
# assay: NF-kB SEAP reporter activity, fold change vs agonist alone; higher = enhanced NF-kB activity
# assay context: library stock concentration (final ~1000-fold dilution): 10 mM; cytotoxicity flag (confluency mask): not cytotoxic; agonist: Imiquimod (TLR7) […]
In all, about 2,900 compounds were measured (“NF-kB SEAP reporter activity, fold change vs agonist alone”: median about 0.99, highest 2% from about 2.6 on). This excerpt belongs to a sample that is enriched for the highest values.
Quick reference for NF-kB SEAP reporter activity among some molecules
measured parameter: NF-kB SEAP reporter activity

{"molecule": "CSCC(N)C(=O)O (centres undefined)", "test value": 0.816}
{"molecule": "COc1ccc(/C=C\\c2cc(OC)c(OC)c(OC)c2)cc1O", "test value": 1.63}
{"molecule": "CCCCCCCCCCCC(CC1OC(=O)C1CCCCCC)OC(=O)C(CC(C)C)NC=O (centres undefined)", "test value": 0.823}
{"molecule": "CCCC(NC(=O)C1C2CCCC2CN1C(=O)C(NC(=O)C(NC(=O)c1cnccn1)C1CCCCC1)C(C)(C)C)C(=O)C(=O)NC1CC1 (centres undefined)", "test value": 0.65}
{"molecule": "C=CC(=O)Nc1cccc(Nc2nc(Nc3ccc(NC4CN(CCF)C4)cc3OC)ncc2C(F)(F)F)c1", "test value": 1.26}
{"molecule": "C=CC(=O)Nc1ccc2ncnc(Nc3ccc(OCc4cccc(F)c4)c(Cl)c3)c2c1.Cc1ccc(S(=O)(=O)O)cc1", "test value": 0.818}
{"molecule": "CS(=O)(=O)CCNCc1ccc(-c2ccc3ncnc(Nc4ccc(OCc5cccc(F)c5)c(Cl)c4)c3c2)o1", "test value": 2.12}
{"molecule": "CC(C)C1C(=O)NC(CCCNC(=N)N)C(=O)NCC(=O)NC(CC(=O)O)C(=O)NC(Cc2ccccc2)C(=O)N1C.O=C(O)C(F)(F)F (centres undefined)", "test value": 0.977}
{"molecule": "COc1cc(OC)c(C=CS(=O)(=O)Cc2ccc(OC)c(NCC(=O)O)c2)c(OC)c1", "test value": 2.64}
{"molecule": "N#Cc1ccc(COCC2OC(n3c(NCc4ccc(Cl)c(Cl)c4)nc4c(N)ncnc43)C(O)C2O)cc1 (centres undefined)", "test value": 0.762}
{"molecule": "O=C(c1ccc(C(=O)N2CCC(N3CCCC3)CC2)c(Nc2ccccc2)c1)N1CCC(N2CCCC2)CC1", "test value": 0.917}
{"molecule": "CC1COCCN1c1cc(-c2ccnn2C)c2ccnc(-c3ccn[nH]3)c2n1.Cl (centres undefined)", "test value": 1.48}
{"molecule": "C=C1CCC2C(C)(COC(=O)CCC(=O)O)C(OC(=O)CCC(=O)O)CCC2(C)C1/C=C/C1=CCOC1=O (centres undefined)", "test value": 0.926}
{"molecule": "CCOc1cc(N2CCC(O)CC2)ccc1Nc1ncc2c(n1)N(C)c1ccccc1C(=O)N2C", "test value": 1.23}

====

# Tested on: RAW-Dual
# assay: NF-kB SEAP reporter activity, fold change vs agonist alone; cytotoxicity flag (confluency mask): not cytotoxic; higher = enhanced NF-kB activity
# assay context: agonist: Pam3CSK4 (TLR2/1) 0.1 ug/mL
The full ranking holds about 2,900 compounds; the median of “NF-kB SEAP reporter activity, fold change vs agonist alone” is about 0.99, and the highest 2% start at about 2.6. The full list was thinned out, with the highest values kept by preference.
measured parameter: NF-kB SEAP reporter activity

{"compound": "COc1ccccc1Nc1nc(-c2sc(NC(C)=O)nc2C)cs1 (library stock concentration (final ~1000-fold dilution): 10 mM)", "test value": 0.245}
{"compound": "Nc1ncn(C2CC(O)C(CO)O2)c(=O)n1 (centres undefined) (library stock concentration (final ~1000-fold dilution): 10 mM)", "test value": 1.26}
{"compound": "CC(=O)NC1C(NC(=N)N)C=C(C(=O)O)OC1C(O)C(O)CO (centres undefined) (library stock concentration (final ~1000-fold dilution): 10 mM water)", "test value": 1.07}
{"compound": "O=C1C(CCC(O)c2ccc(F)cc2)C(c2ccc(O)cc2)N1c1ccc(F)cc1 (centres undefined) (library stock concentration (final ~1000-fold dilution): 10 mM)", "test value": 0.589}
{"compound": "N#CCNC(=O)c1ccc(-c2ccnc(Nc3ccc(N4CCOCC4)cc3)n2)cc1 (library stock concentration (final ~1000-fold dilution): 10 mM)", "test value": 1.08}
{"compound": "Nc1nc(NCCc2ccc(O)cc2)nc2nc(-c3ccco3)nn12 (library stock concentration (final ~1000-fold dilution): 10 mM)", "test value": 1.41}
{"compound": "CC1(C)OC(=O)C=CC2(C)C1CC(=O)C1(C)C2CCC2(C)C(c3ccoc3)OC(=O)C3OC321 (centres undefined) (library stock concentration (final ~1000-fold dilution): 10 mM)", "test value": 1.08}
{"compound": "CCNC1=NC2C(OC(CO)C(O)C2O)S1 (centres undefined) (library stock concentration (final ~1000-fold dilution): 10 mM)", "test value": 1.5}
{"compound": "CN1C(=O)c2sccc2N(C)c2nc(Nc3ccc(S(N)(=O)=O)cc3)ncc21 (library stock concentration (final ~1000-fold dilution): 10 mM)", "test value": 2.56}
{"compound": "CC(C)(CNC(=O)c1cccc(-c2noc(C(F)(F)F)n2)c1)c1coc(-c2ccccc2)n1 (library stock concentration (final ~1000-fold dilution): 10 mM)", "test value": 0.745}
{"compound": "[O-][n+]1cccc(-c2nc3c(Cl)cccc3cc2C(Nc2ncnc3cccnc23)C(F)(F)F)c1 (centres undefined) (library stock concentration (final ~1000-fold dilution): 10 mM)", "test value": 1.38}
{"compound": "CC(C)CCNC(=O)C(CC(C)C)NC(=O)C1OC1C(=O)O (centres undefined) (library stock concentration (final ~1000-fold dilution): 10 mM)", "test value": 1.19}
{"compound": "COc1cc2c(cc1OC)CC(=O)N(CCCN(C)CC1Cc3cc(OC)c(OC)cc31)CC2.Cl (centres undefined) (library stock concentration (final ~1000-fold dilution): 10 mM)", "test value": 1.1}
{"compound": "CCC(Nc1ncnc2[nH]cnc12)c1oc2ccccc2c(=O)c1-c1cccc(F)c1 (centres undefined) (library stock concentration (final ~1000-fold dilution): 10 mM)", "test value": 0.61}
